Cited source for all entries: ChEMBL document CHEMBL3102795

Experiment: Solubility of the compound in simulated intestinal fluid compliant with Japanese pharmacopeia
Assay type: ADME
measuredMetric: solubility (µg/mL)
Please respond with the number in µg/mL and leave the unit unwritten.

Q: Endpoint output: solubility of "O=C(Nc1ccc(C(F)(F)F)cc1)N1CCOC2(CCN(C(=O)c3ccc(Cl)cc3)CC2)C1" . Value?
Result: 23

Q: Likewise for "O=C(Nc1ccc(C(F)(F)F)cc1)N1CCOC2(CCN(C(=O)c3c(F)cccc3F)CC2)C1" ?
Result: 38

Q: Likewise for "O=C(Nc1ccc(OC(F)(F)F)cc1)N1CCCC2(CCN(C(=O)c3c(F)cccc3F)CC2)C1" ?
Result: 9

Q: Likewise for "O=C(CC1CC1)N1CCC2(CC1)CN(C(=O)Nc1ccc(C(F)(F)F)cc1)CCO2" ?
Result: 79

Q: Likewise for "O=C(Nc1ccc(C(F)(F)F)cc1)N1CCOC2(CCN(C(=O)c3cccc(Cl)c3)CC2)C1" ?
Result: 21

---

Test system: Liver microsome
Assay: Metabolic stability in human liver microsomes measured per mg of protein
Type: ADME
measuredMetric: CLint (µL/min/mg)
Please respond with the number in µL/min/mg and leave the unit unwritten.

* O=C(CC1CC1)N1CCC2(CC1)CN(C(=O)Nc1ccc(C(F)(F)F)cc1)CCO2 | 74
* O=C(Nc1ccc(OC(F)(F)F)cc1)N1CCOC2(CCN(C(=O)c3c[nH]nc3C3CC3)CC2)C1 | 35
* O=C(Nc1ccc(OC(F)(F)F)cc1)N1CCOC2(CCN(C(=O)c3c(F)cccc3F)CC2)C1 | 86

Q: Endpoint output: CLint of "O=C(Nc1ccc(OC(F)(F)F)cc1)N1CCCC2(CCN(C(=O)c3c(F)cccc3F)CC2)C1" . Value?
Result: 602

Q: Likewise for "O=C(Nc1ccc(C(F)(F)F)cc1)N1CCOC2(CCN(C(=O)c3c(F)cccc3F)CC2)C1" ?
Result: 93

---

Assay: Solubility of the compound in simulated intestinal fluid compliant with Japanese pharmacopeia
Format: ADME
Mark yes for reported solubility of 60 µg/mL or greater; mark no for anything smaller.

* O=C(Nc1ccc(OC(F)(F)F)cc1)N1CCOC2(CCN(C(=O)c3ccccc3F)CC2)C1 | yes
* O=C(Nc1ccc(OC(F)(F)F)cc1)N1CCOC2(CCN(C(=O)C3CCCCC3)CC2)C1 | yes
* O=C1Cc2cc(C(=O)N3CCC4(CC3)CN(C(=O)Nc3ccc(OC(F)(F)F)cc3)CCO4)ccc2N1 | yes
* O=C(Nc1ccc(OC(F)(F)F)cc1)N1CCOC2(CCN(C(=O)c3c(F)cccc3F)CC2)C1 | no
* CC(C)(C)C(=O)N1CCC2(CC1)CN(C(=O)Nc1ccc(C(F)(F)F)cc1)CCO2 | yes

Q: Decide: solubility of "O=C(Nc1ccc(OC(F)(F)F)cc1)N1CCC2(CC1)CN(C(=O)c1c(F)cccc1F)CCO2" >= 60 µg/mL?
Result: no

Q: Likewise for "CC(=O)Nc1ccccc1C(=O)N1CCC2(CC1)CN(C(=O)Nc1ccc(C(F)(F)F)cc1)CCO2" ?
Result: yes

---

Assay: Solubility of the compound in simulated gastric fluid compliant with Japanese pharmacopeia
Format: ADME
Measured solubility by item
Please respond with the number in µg/mL and leave the unit unwritten.

* O=C1Cc2cc(C(=O)N3CCC4(CC3)CN(C(=O)Nc3ccc(OC(F)(F)F)cc3)CCO4)ccc2N1 | 96
* O=C(Nc1ccc(C(F)(F)F)cc1)N1CCOC2(CCN(C(=O)c3ccc(Cl)cc3)CC2)C1 | 29
* O=C(Cc1ccccn1)N1CCC2(CC1)CN(C(=O)Nc1ccc(OC(F)(F)F)cc1)CCO2 | 92

Q: Endpoint output: solubility of "Cc1cc(C(=O)N2CCC3(CC2)CN(C(=O)Nc2ccc(OC(F)(F)F)cc2)CCO3)no1" . Value?
Result: 84

Q: Likewise for "N#Cc1ccc(C(=O)N2CCC3(CC2)CN(C(=O)Nc2ccc(C(F)(F)F)cc2)CCO3)cc1" ?
Result: 85

Q: Likewise for "O=C(Nc1ccc(C(F)(F)F)cc1)N1CCOC2(CCN(C(=O)c3ccco3)CC2)C1" ?
Result: 75

Q: Likewise for "O=C(Nc1ccc(C(F)(F)F)cc1)N1CCOC2(CCN(C(=O)c3ccccn3)CC2)C1" ?
Result: 85

Q: Likewise for "O=C(Nc1ccc(OC(F)(F)F)cc1)N1CCOC2(CCN(C(=O)c3cnoc3C3CC3)CC2)C1" ?
Result: 86

Q: Likewise for "CC(C)(C)C(=O)N1CCC2(CC1)CN(C(=O)Nc1ccc(C(F)(F)F)cc1)CCO2" ?
Result: 76

---

Assay: Oral bioavailability in rat at 1 mg/kg
Type: ADME, organism-based
Conditions: in vivo
Measured bioavailability by item
// return the numeric value with its unit appended

Example compounds with recorded bioavailability:
- O=C(Nc1ccc(OC(F)(F)F)cc1)N1CCOC2(CCN(C(=O)c3ccccc3F)CC2)C1: 35.4%
- Cc1cc(C(=O)N2CCC3(CC2)CN(C(=O)Nc2ccc(OC(F)(F)F)cc2)CCO3)no1: 24.1%

Q: Endpoint output: bioavailability of "Cc1cnc(C(=O)N2CCC3(CC2)CN(C(=O)Nc2ccc(OC(F)(F)F)cc2)CCO3)cn1" . Value?
Result: 11.1%

---

Assay: Total clearance in rat at 0.2 mg/kg, iv
Format: ADME, organism-based
Set-up: dose 0.2 mg/kg, route intravenous
Details: in vivo
measuredMetric: clearance

Example compounds with recorded clearance:
• Cc1cnc(C(=O)N2CCC3(CC2)CN(C(=O)Nc2ccc(OC(F)(F)F)cc2)CCO3)cn1 = 30.1 mL/min/kg
• O=C(Nc1ccc(OC(F)(F)F)cc1)N1CCOC2(CCN(C(=O)c3ccccc3F)CC2)C1 = 19.3 mL/min/kg

Would you kindly look at the next entry?
Q: Endpoint output: clearance of "Cc1cc(C(=O)N2CCC3(CC2)CN(C(=O)Nc2ccc(OC(F)(F)F)cc2)CCO3)no1" . Value?
Result: 36.9 mL/min/kg

---

Measured Tmax by item
Experiment: Tmax in rat at 1 mg/kg, po
Format: ADME, organism-based
Parameters: dose 1 mg/kg, route oral
Details: in vivo

Example molecules with recorded Tmax:
- Cc1cc(C(=O)N2CCC3(CC2)CN(C(=O)Nc2ccc(OC(F)(F)F)cc2)CCO3)no1: 2 h
- O=C(Nc1ccc(OC(F)(F)F)cc1)N1CCOC2(CCN(C(=O)c3ccccc3F)CC2)C1: 1 h

Would you kindly look at the next entry?
Q: Endpoint output: Tmax of "Cc1cnc(C(=O)N2CCC3(CC2)CN(C(=O)Nc2ccc(OC(F)(F)F)cc2)CCO3)cn1" . Value?
Result: 1 h

---

Biological target: Bifunctional epoxide hydrolase 2 (Homo sapiens, UniProt P34913)
Sequence (P34913 whole entry): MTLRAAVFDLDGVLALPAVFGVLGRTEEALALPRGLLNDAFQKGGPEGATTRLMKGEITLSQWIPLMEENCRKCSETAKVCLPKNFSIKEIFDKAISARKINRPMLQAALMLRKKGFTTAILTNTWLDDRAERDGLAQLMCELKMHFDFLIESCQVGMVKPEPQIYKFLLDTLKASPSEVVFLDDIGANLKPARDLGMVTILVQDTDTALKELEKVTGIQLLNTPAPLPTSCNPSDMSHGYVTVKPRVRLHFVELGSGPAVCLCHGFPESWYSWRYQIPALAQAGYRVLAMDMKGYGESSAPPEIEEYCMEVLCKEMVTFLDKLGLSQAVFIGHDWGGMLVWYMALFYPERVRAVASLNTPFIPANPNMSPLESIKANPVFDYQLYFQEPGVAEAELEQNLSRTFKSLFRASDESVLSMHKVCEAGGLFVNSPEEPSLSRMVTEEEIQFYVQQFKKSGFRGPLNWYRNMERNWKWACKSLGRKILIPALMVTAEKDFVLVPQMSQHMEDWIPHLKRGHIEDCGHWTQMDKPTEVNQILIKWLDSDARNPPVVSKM
Assay: Inhibition of human recombinant sEH expressed in baculovirus infected insect Sf9 cells using cyano(6-methoxynaphthalen-2-yl)methyl trans-[(3-phenyloxiran-2-yl)methyl] carbonate as substrate preincubated for 30 mins followed by substrate addition measured after 20 to 45 mins by fluorescence assay
pIC50: −log10 of the molar value.
Mark MET for reported pIC50 of 9 or greater; mark NOT MET for anything smaller.

Please review the following examples before continuing.
- O=C(Nc1ccc(OC(F)(F)F)cc1)N1CCCC2(CCN(C(=O)c3c(F)cccc3F)CC2)C1: MET
- O=C(Nc1ccc(C(F)(F)F)cc1)N1CCOC2(CCN(C(=O)c3ccco3)CC2)C1: NOT MET

Q: Decide: pIC50 of "O=C(CC1CC1)N1CCC2(CC1)CN(C(=O)Nc1ccc(C(F)(F)F)cc1)CCO2" >= 9?
Result: NOT MET

Q: Likewise for "O=C(Nc1ccc(OC(F)(F)F)cc1)N1CCC2(CC1)CN(C(=O)c1c(F)cccc1F)CCO2" ?
Result: NOT MET

---

Target: Bifunctional epoxide hydrolase 2 (Rattus norvegicus)
Sequence (P80299 whole entry): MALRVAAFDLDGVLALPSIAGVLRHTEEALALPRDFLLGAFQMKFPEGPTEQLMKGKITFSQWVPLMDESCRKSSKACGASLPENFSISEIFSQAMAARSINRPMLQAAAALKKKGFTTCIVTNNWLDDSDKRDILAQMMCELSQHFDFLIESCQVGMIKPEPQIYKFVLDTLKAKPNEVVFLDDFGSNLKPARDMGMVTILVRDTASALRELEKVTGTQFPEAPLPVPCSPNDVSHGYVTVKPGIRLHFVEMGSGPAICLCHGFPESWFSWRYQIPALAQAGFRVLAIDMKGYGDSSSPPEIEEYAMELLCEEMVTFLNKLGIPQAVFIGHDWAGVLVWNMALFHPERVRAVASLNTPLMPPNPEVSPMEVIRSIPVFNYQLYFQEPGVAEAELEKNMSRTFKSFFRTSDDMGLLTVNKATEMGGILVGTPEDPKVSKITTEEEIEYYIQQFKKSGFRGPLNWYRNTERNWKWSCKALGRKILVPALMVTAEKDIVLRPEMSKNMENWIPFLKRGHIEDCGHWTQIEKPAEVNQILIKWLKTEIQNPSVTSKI
Assay: Inhibition of rat recombinant sEH expressed in baculovirus infected insect Sf9 cells using cyano(6-methoxynaphthalen-2-yl)methyl trans-[(3-phenyloxiran-2-yl)methyl] carbonate as substrate preincubated for 30 mins followed by substrate addition measured after 20 to 45 mins by fluorescence assay
measuredMetric: log10 of IC50 (log10 of the value in nM)
// units: nM (pre-log); metric: IC50; scale: log10

- O=C(CC1CC1)N1CCC2(CC1)CN(C(=O)Nc1ccc(C(F)(F)F)cc1)CCO2: 1.50
- O=C(Nc1ccc(OC(F)(F)F)cc1)N1CCOC2(CCN(C(=O)c3cc(Cl)ccn3)CC2)C1: 1.06
- N#Cc1ccc(C(=O)N2CCC3(CC2)CN(C(=O)Nc2ccc(C(F)(F)F)cc2)CCO3)cc1: 1.18

Q: Endpoint output: log10 of IC50 of "O=C(Nc1ccc(OC(F)(F)F)cc1)N1CCCC2(CCN(C(=O)c3c(F)cccc3F)CC2)C1" . Value?
Result: 0.52

---

Measured solubility by item
Assay: Solubility of the compound in simulated gastric fluid compliant with Japanese pharmacopeia
Format: ADME
Please respond with the number in µg/mL and leave the unit unwritten.

Example molecules with recorded solubility:
- COc1ccccc1CC(=O)N1CCC2(CC1)CN(C(=O)Nc1ccc(OC(F)(F)F)cc1)CCO2: 66
- Cc1cnc(C(=O)N2CCC3(CC2)CN(C(=O)Nc2ccc(OC(F)(F)F)cc2)CCO3)cn1: 91

Q: Endpoint output: solubility of "O=C(Nc1ccc(OC(F)(F)F)cc1)N1CCCC2(CCN(C(=O)c3c(F)cccc3F)CC2)C1" . Value?
Result: 9

Q: Likewise for "O=C(Nc1ccc(OC(F)(F)F)cc1)N1CCOC2(CCN(C(=O)C3CCCCC3)CC2)C1" ?
Result: 69

Q: Likewise for "O=C(Nc1ccc(OC(F)(F)F)cc1)N1CCOC2(CCN(C(=O)c3c[nH]nc3C3CC3)CC2)C1" ?
Result: 93

Q: Likewise for "O=C(Nc1ccc(C(F)(F)F)cc1)N1CCOC2(CCN(C(=O)c3cccc(Cl)c3)CC2)C1" ?
Result: 26

Q: Likewise for "O=C(Nc1ccc(OC(F)(F)F)cc1)N1CCC2(CC1)CN(C(=O)c1c(F)cccc1F)CCO2" ?
Result: 52
